molecular target: p-Akt3 in WM115 cells (Homo sapiens, UniProt Q9Y243); construct: SureFire assays to detect cellular p-Akt1, p-Akt2 and p-Akt3 levels in WM115 cells (Akt2/3) and LNCaP cells (Akt1); endogenous in cells; host or cells: WM115 (ECACC 91061232), insulin-stimulated; test: Phospho-Akt cellular SureFire assay, p-Akt3 in WM115 cells; type: cell-based; conditions: insulin stimulated, read-out: Biological Assay 2 IC50 (nM) Akt3 WM115
Sequence (Q9Y243 whole entry): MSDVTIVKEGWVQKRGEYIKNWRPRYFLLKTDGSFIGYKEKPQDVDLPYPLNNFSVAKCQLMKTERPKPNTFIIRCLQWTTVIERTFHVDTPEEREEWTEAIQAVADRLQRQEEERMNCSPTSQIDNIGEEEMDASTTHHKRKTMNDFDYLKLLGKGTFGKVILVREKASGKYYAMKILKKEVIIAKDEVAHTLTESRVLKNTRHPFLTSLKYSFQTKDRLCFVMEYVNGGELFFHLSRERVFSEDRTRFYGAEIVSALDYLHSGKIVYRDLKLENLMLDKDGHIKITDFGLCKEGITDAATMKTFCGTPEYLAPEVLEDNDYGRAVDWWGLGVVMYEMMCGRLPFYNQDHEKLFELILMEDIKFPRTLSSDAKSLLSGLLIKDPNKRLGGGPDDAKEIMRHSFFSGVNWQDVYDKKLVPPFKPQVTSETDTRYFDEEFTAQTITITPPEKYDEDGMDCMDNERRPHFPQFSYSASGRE
Entries annotated with measured IC50
Provide only the numeric value, understood in nM.

Answered examples (2):
compound	reported endpoint	test value
CCN(C(C)=O)[C@H]1CC[C@H](CC(=O)Nc2cc(-c3ccccc3)c(-c3ccc([C@]4(N)C[C@](C)(O)C4)cc3)nn2)CC1 [Example 106]	IC50	25
COC(=O)N(C)[C@H]1CC[C@H](CC(=O)Nc2cc(-c3ccccn3)c(-c3ccc(C4(N)CC4)cc3)cn2)CC1 [Example A88]	IC50	1600

Data request: # IC50 lookup, item CCC(=O)N(C)[C@H]1CC[C@H](CC(=O)Nc2cc(-c3ccsc3)c(-c3ccc([C@]4(N)C[C@](C)(O)C4)cc3)cn2)CC1 [Example 110]
Data returned: 16
